# Assay: Pharmacokinetic evaluation after single intravenous and single oral administration
# Type: in vivo, female Balb/c Nude mice
# Assay context: female, Balb/c Nude; Intravenous administration, 1 mg/kg, mouse plasma; read-out: Half-life T1/2 (converted)
Property measured: half-life (min)

A. CN1CCN(c2ccc(Nc3ncc4c(=O)n5n(c4n3)-c3cccc(n3)[C@](C)(O)CC/C=C\C5)cc2)CC1 (single isomer, unassigned)
B. C=CCn1c(=O)c2cnc(Nc3ccc(N4CCN(C)CC4)cc3)nc2n1-c1cccc(C(C)(C)O)n1 [AZD1775, reference compound]
Q: # return whichever of A and B has the smaller half-life Please reply using the label of the selected record.
Ans: B
(B: 15.1 min, A: 101 min)

###

# Assay: Pharmacokinetic evaluation after single intravenous and single oral administration
# Format: in vivo, female Balb/c Nude mice
# Assay context: female, Balb/c Nude, mouse, plasma, po; Administration by gavage, 10 mg/kg; read-out: Bioavailability F (%)
Property measured: bioavailability (%)
Give the quantity in %, number only.

Q: Which value of bioavailability has been reported for CN1CCN(c2ccc(Nc3ncc4c(=O)n5n(c4n3)-c3cccc(n3)[C@](C)(O)CC/C=C\C5)cc2)CC1 (single isomer, unassigned) in the records?
Ans: 62.4

###

# Tested on: P-gp (MDR1)
# Assay: In vitro permeability test in MDR1-MDCK II cells
# Assay type: in vitro ADME, canine
# Assay context: dog, read-out: Penetration rate A to B
Property measured: Papp A→B at 150 min, 2 μM (×10⁻⁶ cm/s)
Give the quantity in ×10⁻⁶ cm/s, number only.

Q: Which value of Papp A→B at 150 min, 2 μM has been reported for CN1CCN(c2ccc(Nc3ncc4c(=O)n5n(c4n3)-c3cccc(n3)[C@](C)(O)CC/C=C\C5)cc2)CC1 (single isomer, unassigned) in the records?
Ans: 4.55

###

# Tested on: P-gp (human MDR1)
# Assay: In vitro permeability test in MDR1-MDCK II cells
# Assay type: in vitro ADME, canine
# Assay context: dog
Property measured: efflux ratio at 150 min, 2 μM
# print the numeric value only

Q: Which value of efflux ratio at 150 min, 2 μM has been reported for CN1CCN(c2ccc(Nc3ncc4c(=O)n5n(c4n3)-c3cccc(n3)[C@](C)(O)CC/C=C\C5)cc2)CC1 (single isomer, unassigned) [Compound of Formula (I)] in the records?
Ans: 3.82

###

# Assay: Pharmacokinetic evaluation after single intravenous and single oral administration
# Type: in vivo, female Balb/c Nude mice
# Assay context: female, Balb/c Nude, po; Administration by gavage, 10 mg/kg, mouse plasma; read-out: Area under the drug-time curve AUC0-last
Property measured: AUC(0-t) (µM·h)

a. C=CCn1c(=O)c2cnc(Nc3ccc(N4CCN(C)CC4)cc3)nc2n1-c1cccc(C(C)(C)O)n1 [AZD1775, reference compound]
b. CN1CCN(c2ccc(Nc3ncc4c(=O)n5n(c4n3)-c3cccc(n3)[C@](C)(O)CC/C=C\C5)cc2)CC1 (single isomer, unassigned) [Compound of Formula (I)]
Q: # return whichever of a and b has the smaller AUC(0-t) Please reply using the label of the selected record.
Ans: a

###

# System tested: Wee1 (Homo sapiens)
# Construct: purchased Eurofins
# Sequence (P30291 whole entry): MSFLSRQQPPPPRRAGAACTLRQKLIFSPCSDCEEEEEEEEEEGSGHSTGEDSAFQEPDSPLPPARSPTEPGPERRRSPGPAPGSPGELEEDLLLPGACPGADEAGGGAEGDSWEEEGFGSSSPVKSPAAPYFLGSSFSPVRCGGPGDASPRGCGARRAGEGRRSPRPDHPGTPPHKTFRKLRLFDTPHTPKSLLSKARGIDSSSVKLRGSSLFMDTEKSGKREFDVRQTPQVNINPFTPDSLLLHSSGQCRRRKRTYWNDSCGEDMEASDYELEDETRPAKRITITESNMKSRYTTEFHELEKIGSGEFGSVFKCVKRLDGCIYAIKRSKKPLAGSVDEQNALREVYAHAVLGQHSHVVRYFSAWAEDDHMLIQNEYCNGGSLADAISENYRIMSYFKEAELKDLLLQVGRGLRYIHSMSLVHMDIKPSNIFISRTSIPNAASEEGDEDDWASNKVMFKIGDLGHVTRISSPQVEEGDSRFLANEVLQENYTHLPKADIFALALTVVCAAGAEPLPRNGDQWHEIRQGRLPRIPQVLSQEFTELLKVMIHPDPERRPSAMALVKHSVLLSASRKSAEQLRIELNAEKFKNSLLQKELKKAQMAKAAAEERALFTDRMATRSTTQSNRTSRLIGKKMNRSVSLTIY
# Assay: In vitro enzymatic inhibitory activity (Eurofins, [γ-33P]-ATP filter assay)
# Type: biochemical
# Assay context: 10 μM ATP, 40 min, room temperature
Property measured: IC50 (nM)
Give the quantity in nM, number only.

Q: Which value of IC50 has been reported for CN1CCN(c2ccc(Nc3ncc4c(=O)n5n(c4n3)-c3cccc(n3)[C@](C)(O)CC/C=C\C5)cc2)CC1 (single isomer, unassigned) [Compound of Formula (I)] in the records?
Ans: 29

The measurements presented in this section are drawn from patent US12291536B2.
